- tested_on: human UGT1A1 (Homo sapiens, UniProt P22309)
- measurement_protocol: Inhibition of estradiol 3-O-glucuronidation in the UGT1A1 recombinant system
- Type: biochemical
result_type: Ki (µM)
The figure you give is taken to be in µM; do not add the unit.

Solved cases (2 shown):
CCCCC/C=C\C/C=C\CCCCCCCC(=O)O; 22.1
CC/C=C\C/C=C\C/C=C\C/C=C\C/C=C\C/C=C\CCC(=O)O; 1.8

For the next question, use this compound.
Input line: Which Ki is reported with human UGT1A1 (Homo sapiens, UniProt P22309) for this entry: CCCCCCCC/C=C\CCCCCCCC(=O)O ?
Output line: 23.4

* * *

- tested_on: human UGT1A1 (Homo sapiens, UniProt P22309)
- measurement_protocol: Inhibition of estradiol 3-O-glucuronidation in the UGT1A1 recombinant system
result_type: pIC50
The read-out pIC50 is expressed as -log10 of concentration in moles per litre.

Input line: Recorded pIC50 for CCCCCCCC/C=C\CCCCCCCC(=O)O [Oleic acid] with human UGT1A1 (Homo sapiens, UniProt P22309), please?
Output line: 4.50

Input line: Try this compound too: CCCCC/C=C\C/C=C\CCCCCCCC(=O)O [Linoleic acid]
Output line: 4.48

Input line: Okay, and CC/C=C\C/C=C\C/C=C\C/C=C\C/C=C\CCCC(=O)O [EPA, eicosapentaenoic acid] ?
Output line: 4.70

Input line: Lookup CCCCC/C=C\C/C=C\C/C=C\C/C=C\CCCC(=O)O [Arachidonic acid]
Output line: 4.64

Input line: Next compound: CC/C=C\C/C=C\C/C=C\C/C=C\C/C=C\C/C=C\CCC(=O)O [DHA, docosahexaenoic acid]
Output line: 4.94

Input line: What do you get for CCCCCC/C=C\CCCCCCCC(=O)O [Palmitoleic acid] ?
Output line: 4.43

* * *

- Tested on: UGT1A1
- measurement_protocol: Inhibition of estradiol 3-O-glucuronidation in human small intestine microsomes
- Format: biochemical
- condition_summary: human, human small intestine microsomes, pH 7.4, probe estradiol (10 μM; estradiol 3-O-glucuronide formation)
result_type: activity at 30 min, 50 μM

CCCCC/C=C\C/C=C\CCCCCCCC(=O)O; > 80%

Input line: Which activity at 30 min, 50 μM is reported for this compound? CCCCCCCC/C=C\CCCCCCCC(=O)O
Output line: > 80%

* * *

Target chain: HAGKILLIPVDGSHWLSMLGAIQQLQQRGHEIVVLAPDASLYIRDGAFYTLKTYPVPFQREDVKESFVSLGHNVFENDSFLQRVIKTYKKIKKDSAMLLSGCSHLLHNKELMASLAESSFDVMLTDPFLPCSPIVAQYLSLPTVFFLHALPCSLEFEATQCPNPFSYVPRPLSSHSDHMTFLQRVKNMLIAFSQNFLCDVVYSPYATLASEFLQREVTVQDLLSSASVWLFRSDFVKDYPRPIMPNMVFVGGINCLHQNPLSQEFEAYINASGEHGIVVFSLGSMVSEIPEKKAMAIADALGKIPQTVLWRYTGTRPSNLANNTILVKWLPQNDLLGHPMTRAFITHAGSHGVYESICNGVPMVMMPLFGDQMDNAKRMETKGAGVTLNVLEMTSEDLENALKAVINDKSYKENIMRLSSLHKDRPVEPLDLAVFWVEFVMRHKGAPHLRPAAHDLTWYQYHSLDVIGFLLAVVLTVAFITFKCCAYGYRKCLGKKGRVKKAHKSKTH
result_type: Ki (µM)
Return type: number; implicit unit µM.

Some compounds with known Ki results, for comparison:
CCCCC/C=C\C/C=C\CCCCCCCC(=O)O; 24
CC/C=C\C/C=C\C/C=C\C/C=C\C/C=C\C/C=C\CCC(=O)O; 4.3

Attention now shifts to the item below.
Input line: What measured Ki goes with CCCCCCCC/C=C\CCCCCCCC(=O)O ?
Output line: 29.3
